assay: in vivo; details: mouse, in vivo; female ddY mice, iv, NaOH solution final pH 8.8-9.2, 7 days, Behrens-Kaerber method; read-out: LD50 (intravenous administration)
reported.endpoint: LD50 at 168 h (mg/kg)
Answers are plain numbers, in mg/kg.

The compound listed as CCn1cc(C(=O)O)c(=O)c2cnc(N3CCN(Cc4ccc(N)cc4)CC3)nc21 has a reported LD50 at 168 h of 354

====

system: Staphylococcus aureus No. 50774; assay: In vivo efficacy against the intravenous infection of mice by Staphylococcus aureus No. 50774; settings: NO.50774, 336 h, male ddY mice, iv infection 6 LD50, oral, twice (5 minutes and 6 hours after infection), survival after 2 weeks
reported.endpoint: ED50 (mg/kg)
One number for each entry, in mg/kg.

Some solved cases for reference:
CCn1cc(C(=O)O)c(=O)c2cnc(N3CCNCC3)nc21 [Compound PPA] | 238
CCn1cc(C(=O)O)c(=O)c2cnc(N3CCN(Cc4ccc(N)cc4)CC3)nc21 [Compound AT-1826] | 7.2

Please fill in: ED50 reported for CCn1cc(C(=O)O)c(=O)c2cnc(N3CCN(Cc4ccc(OC)cc4)CC3)nc21 [Compound 2] = 54.5
